# METHOD_DESCRIPTION: QAC levels in human blood
# Type: in vivo
# RUN_CONDITIONS: human serum, during COVID-19 (2020), n = 111
VALUE_TYPE: Maximum concentration (ng/mL)
# output: bare number, implied unit ng/mL

Find the recorded Maximum concentration belonging to CCCCCCCCCCCC[N+](C)(C)Cc1ccccc1 and report it.
22.1

Please give the measured Maximum concentration for this compound: CCCCCCCC[N+](C)(C)Cc1ccccc1
0.433

What does the data say about its Maximum concentration? Entry: CCCCCCCCCC[N+](C)(C)Cc1ccccc1
1.45

Entry CCCCCCCCCCCCCC[N+](C)(C)Cc1ccccc1 : reported Maximum concentration = ?
40.1

----------
# METHOD_DESCRIPTION: QAC levels in human blood
# Format: in vivo
# RUN_CONDITIONS: human serum, before COVID-19 (2019), n = 111; non-detects = 1/2 MDL
VALUE_TYPE: Median concentration

CCCCCCCCCC[N+](C)(C)Cc1ccccc1
<MDL
CCCCCCCCCCCCCCCC[N+](C)(C)Cc1ccccc1
0.080 ng/mL
CCCCCCCCCCCCCCCC[N+](C)(C)CCCCCCCCCCCCCCCC
<MDL
CCCCCCCC[N+](C)(C)CCCCCCCC
<MDL
CCCCCCCCCCCCCCCCCC[N+](C)(C)C
<MDL

Need Median concentration of CCCCCCCCCCCCCC[N+](C)(C)Cc1ccccc1 , thanks.
0.490 ng/mL

Item under review: CCCCCCCCCCCC[N+](C)(C)Cc1ccccc1 . Reported Median concentration?
0.289 ng/mL

Find the recorded Median concentration belonging to CCCCCCCCCC[N+](C)(C)CCCCCCCCCC and report it.
<MDL

# Median concentration lookup, item CCCCCCCCCCCCCCCCCC[N+](C)(C)Cc1ccccc1
<MDL

----------
# METHOD_DESCRIPTION: QAC levels in human blood
# Format: in vivo
# RUN_CONDITIONS: human serum, before COVID-19 (2019), n = 111; non-detects = 1/2 MDL
VALUE_TYPE: Median concentration

Worked examples, 5 compounds total:
CCCCCCCCCCCCCCCCCC[N+](C)(C)CCCCCCCCCCCCCCCCCC [C18-DDAC]
<MDL
CCCCCCCC[N+](C)(C)Cc1ccccc1 [C8-BAC]
<MDL
CCCCCCCCCCCCCC[N+](C)(C)C [C14-ATMAC]
0.667 ng/mL
CCCCCCCCCCCC[N+](C)(C)C [C12-ATMAC]
0.981 ng/mL
CCCCCCCCCCCCCC[N+](C)(C)CCCCCCCCCCCCCC [C14-DDAC]
<MDL

# evaluate next
Which Median concentration is listed for CCCCCCCCCCCCCCCC[N+](C)(C)C [C16-ATMAC] ?
<MDL

----------
# METHOD_DESCRIPTION: QAC levels in human blood
# Format: in vivo
# RUN_CONDITIONS: human serum, before COVID-19 (2019), n = 111
I'd be grateful if you could share measured log10(Maximum concentration) for these entries.
In our notation, the value equals log10 of Maximum concentration in ng/mL.

Looking for the measured log10(Maximum concentration) of CCCCCCCCCCCCCC[N+](C)(C)CCCCCCCCCCCCCC [C14-DDAC] , can you help?
-0.28

Need log10(Maximum concentration) of CCCCCCCCCCCC[N+](C)(C)C [C12-ATMAC] , thanks.
0.93

Dear colleague, I am looking for the recorded log10(Maximum concentration) of the following compound: CCCCCCCCCCCCCCCCCC[N+](C)(C)C [C18-ATMAC]
-0.77

Bench note: what log10(Maximum concentration) did CCCCCCCCCCCCCCCCCC[N+](C)(C)CCCCCCCCCCCCCCCCCC [C18-DDAC] show?
0.76

Can you share its log10(Maximum concentration)? I mean this compound: CCCCCCCCCCCCCC[N+](C)(C)C [C14-ATMAC]
0.27

Request the reported log10(Maximum concentration) associated with CCCCCCCCCCCCCCCCCC[N+](C)(C)Cc1ccccc1 [C18-BAC]
0.33

# query: log10(Maximum concentration) of entry CCCCCCCCCC[N+](C)(C)Cc1ccccc1 [C10-BAC]
-0.78

So what does the record say about log10(Maximum concentration) for CCCCCCCCCC[N+](C)(C)CCCCCCCCCC [C10-DDAC] ?
-0.69

Endpoint output: log10(Maximum concentration) of CCCCCCCCCCCCCCCC[N+](C)(C)CCCCCCCCCCCCCCCC [C16-DDAC] . Value?
-0.85

Find the recorded log10(Maximum concentration) belonging to CCCCCCCCCCCC[N+](C)(C)Cc1ccccc1 [C12-BAC] and report it.
0.15

log10(Maximum concentration) for CCCCCCCC[N+](C)(C)Cc1ccccc1 [C8-BAC] ?
-0.71

What measured log10(Maximum concentration) goes with CCCCCCCCCCCCCC[N+](C)(C)Cc1ccccc1 [C14-BAC] ?
0.37

Need log10(Maximum concentration), item CCCCCCCCCCCCCCCC[N+](C)(C)Cc1ccccc1 [C16-BAC]
-0.10

For the compound CCCCCCCCCCCCCCCC[N+](C)(C)C [C16-ATMAC] , what log10(Maximum concentration) is on record?
0.75

So what's the measured log10(Maximum concentration) for this one? CCCCCCCC[N+](C)(C)CCCCCCCC [C8-DDAC]
-0.35

----------
# METHOD_DESCRIPTION: QAC levels in human blood
# Format: in vivo
# RUN_CONDITIONS: human serum, during COVID-19 (2020), n = 111
VALUE_TYPE: Minimum concentration

CCCCCCCCCCCC[N+](C)(C)C
<MDL
CCCCCCCCCCCCCCCC[N+](C)(C)Cc1ccccc1
<MDL
CCCCCCCCCCCC[N+](C)(C)Cc1ccccc1
<MDL
CCCCCCCC[N+](C)(C)CCCCCCCC
<MDL

----------
# METHOD_DESCRIPTION: QAC levels in human blood
# Format: in vivo
# RUN_CONDITIONS: human serum, during COVID-19 (2020), n = 111; non-detects = 1/2 MDL
Category key, based on recorded Median concentration: range A (below 0.2 ng/mL), range B (0.2 ng/mL to below 0.9 ng/mL), range C (0.9 ng/mL or more)

The entry to classify is CCCCCCCC[N+](C)(C)Cc1ccccc1 [C8-BAC] ; which class holds it?
range A

Bin? CCCCCCCCCCCCCCCC[N+](C)(C)C [C16-ATMAC]
range C

Which bin should I file CCCCCCCCCCCCCCCCCC[N+](C)(C)Cc1ccccc1 [C18-BAC] under?
range A

Just checking, what class would you give CCCCCCCCCCCCCC[N+](C)(C)Cc1ccccc1 [C14-BAC] here?
range C

Form: Item = CCCCCCCCCCCCCCCC[N+](C)(C)Cc1ccccc1 [C16-BAC] ; Class = ?
range B

Determine which band this compound sits in: CCCCCCCCCCCCCC[N+](C)(C)C [C14-ATMAC]
range C

Which band does CCCCCCCCCCCC[N+](C)(C)C [C12-ATMAC] fall in?
range B

Which band does CCCCCCCCCC[N+](C)(C)CCCCCCCCCC [C10-DDAC] fall in?
range A

State the band of CCCCCCCCCCCC[N+](C)(C)Cc1ccccc1 [C12-BAC]
range B

Entry source: paper PMC8547165
